Please go through the items and note down their IC50.
# Test system: DMS-114 (FGFR1 overexpression) cells
# assay.notes: cell proliferation assay (CellTiterGlo), DMS-114 cells
# Format: cell-based
# experimental.conditions: Homo sapiens, DMS-114, 72 h

Look over these answered cases.
Cc1nc2ccc(Oc3ccc4ncc(-c5cnn(CC6(O)CC6)c5)nc4c3N3CCOC3=O)c(F)c2[nH]1; ≥ 0.4 µM
Cc1nc2ccc(Oc3ccc4ncc(-c5cnn(C6CN(C7CN(C)C7)C6)c5)nc4c3Cl)cc2[nH]1; ≥ 0.4 µM
Cc1nc2ccc(Oc3ccc4ncc(-c5cnn(C6CC7CC6CN7C)c5)nc4c3Cl)cc2[nH]1 (centres unmarked); 0.1 to 0.4 µM
Cc1nc2ccc(Oc3ccc4ncc(-c5cnn(C6CN(CC(F)F)C6)c5)nc4c3Cl)cc2[nH]1; ≥ 0.4 µM
Cc1nc2ccc(Oc3ccc4ncc(-c5cnn([C@H]6C[C@](C)(O)C6)c5)nc4c3Cl)cc2[nH]1; 0.1 to 0.4 µM
Cc1nc2ccc(Oc3ccc4ncc(-c5cnn([C@H]6CC[C@@H](N7CCC7)CC6)c5)nc4c3Cl)cc2[nH]1; 0.1 to 0.4 µM
Cc1nc2ccc(Oc3ccc4ncc(-c5cnn(CC6CC(F)(F)C6)c5)nc4c3C3CCOCC3)cc2[nH]1; ≥ 0.4 µM
Cc1nc2ccc(Oc3ccc4ncc(-c5cnn(CC6CC(F)(F)C6)c5)nc4c3C3=CCNC3)cc2[nH]1; ≥ 0.4 µM
Cc1nc2ccc(Oc3ccc4ncc(-c5cnn(CC6CC(N7CCC7)C6)c5)nc4c3Cl)cc2[nH]1 (centres unmarked); ≥ 0.4 µM
Cc1nc2ccc(Oc3ccc4ncc(-c5cnn(Cc6nnc(C)o6)c5)nc4c3Cl)cc2[nH]1; ≥ 0.4 µM

For every item in the list below, what is its measured IC50?
1. Cc1nc2ccc(Oc3ccc4ncc(-c5cnn(CC(=O)N6CCOC(C)(C)C6)c5)nc4c3Cl)cc2[nH]1
2. Cc1nc2ccc(Oc3ccc4ncc(-c5cnn(C6CC(C)(O)C6)c5)nc4c3Cl)cc2[nH]1 (centres unmarked)
3. Cc1nc2ccc(Oc3ccc4ncc(-c5cnn(CC(=O)N6CCC(O)C6)c5)nc4c3Cl)cc2[nH]1 (centres unmarked)
4. Cc1nc2ccc(Oc3ccc4ncc(-c5cnn([C@H]6C[C@H]7CC[C@@H](C6)N7)c5)nc4c3Cl)cc2[nH]1

1. ≥ 0.4 µM
2. ≥ 0.4 µM
3. ≥ 0.4 µM
4. 0.1 to 0.4 µM

----------
Please go through the items and note down their pIC50.
# System: DMS-114 (FGFR1 overexpression) cells
# assay.notes: cell proliferation assay (CellTiterGlo), DMS-114 cells
# Type: cell-based
# experimental.conditions: Homo sapiens, DMS-114, 72 h
pIC50: −log10 of the molar value.

Cc1nc2ccc(Oc3ccc4ncc(-c5cnn(CC6CC7CC6CN7C(N)=O)c5)nc4c3Cl)cc2[nH]1 (stereo not shown); ≤ 6.40
Cc1nc2ccc(Oc3ccc4ncc(-c5cnn(C6CCC(F)(F)CC6)c5)nc4c3Cl)cc2[nH]1; ≤ 6.40

For every item in the list below, what is its measured pIC50?
1. Cc1nc2ccc(Oc3ccc4ncc(-c5cnn(C(C)(C)CO)c5)nc4c3Cl)c(F)c2[nH]1
2. Cc1nc2ccc(Oc3ccc4ncc(-c5cnn(CC(=O)N6CC(O)C6)c5)nc4c3Cl)cc2[nH]1
3. Cc1nc2ccc(Oc3ccc4ncc(-c5cnn(CC6CCS(=O)(=O)CC6)c5)nc4c3Cl)cc2[nH]1
4. Cc1nc2ccc(Oc3ccc4ncc(-c5cnn([C@H]6CCNC[C@@H]6F)c5)nc4c3C)cc2[nH]1
5. Cc1nc2ccc(Oc3ccc4ncc(-c5cnn(CC6(O)CC6)c5)nc4c3I)cc2[nH]1

1: 6.40 to 7.00; 2: ≤ 6.40; 3: 6.40 to 7.00; 4: ≤ 6.40; 5: ≤ 6.40

----------
# System: DMS-114 (FGFR1 overexpression) cells
# assay.notes: cell proliferation assay (CellTiterGlo), DMS-114 cells
# Type: cell-based
# experimental.conditions: Homo sapiens, DMS-114, 72 h
pIC50: −log10 of the molar value.
Please go through the items and note down their pIC50.

Look over these answered cases.
Cc1nc2cc(Oc3ccc4ncc(-c5cnn(CC6CC(F)(F)C6)c5)nc4c3C(F)F)ccc2[nH]1; 6.40 to 7.00
Cc1nc2ccc(Oc3ccc4ncc(-c5cnn(CCN6C[C@@H]7C[C@H]6CO7)c5)nc4c3Cl)cc2[nH]1; ≤ 6.40
Cc1nc2ccc(Oc3ccc4ncc(-c5cnn(CC(C)(C)C#N)c5)nc4c3Cl)cc2[nH]1; ≤ 6.40
Cc1nc2ccc(Oc3ccc4ncc(-c5cnn(CC6(O)CC6)c5)nc4c3Cl)c(F)c2[nH]1; 7.00 to 7.70
Cc1nc2ccc(Oc3ccc4ncc(-c5cnn(CC6CC(F)(F)C6)c5)nc4c3C3COC3)cc2[nH]1; ≤ 6.40
Cc1nc2ccc(Oc3ccc4ncc(-c5cnn(CC6CCSCC6)c5)nc4c3Cl)cc2[nH]1; ≤ 6.40
Cc1nc2ccc(Oc3ccc4ncc(-c5cnn(CC6CCC(N(C)C)CC6)c5)nc4c3Cl)cc2[nH]1 (stereo not drawn); 6.40 to 7.00
Cc1nc2ccc(Oc3ccc4ncc(-c5cnn([C@H]6C[C@](C)(O)C6)c5)nc4c3Cl)c(F)c2[nH]1; 6.40 to 7.00

For every item in the list below, what is its measured pIC50?
1. Cc1nc2ccc(Oc3ccc4ncc(-c5cnn([C@@H](C)CO)c5)nc4c3Cl)c(F)c2[nH]1
2. Cc1nc2ccc(Oc3ccc4ncc(-c5cnn(CC6CNCCO6)c5)nc4c3Cl)cc2[nH]1 (stereo not drawn)
3. Cc1nc2ccc(Oc3ccc4ncc(-c5cnn(CCC(F)F)c5)nc4c3Cl)cc2[nH]1
4. Cc1nc2ccc(Oc3ccc4ncc(-c5cnn(C[C@H]6C[C@](C)(O)C6)c5)nc4c3Cl)c(F)c2[nH]1
5. Cc1nc2ccc(Oc3ccc4ncc(-c5cnn(CC6CC(F)(F)C6)c5)nc4c3C3CCOC3)c(F)c2[nH]1 (stereo not drawn)

6.40 to 7.00
≤ 6.40
≤ 6.40
6.40 to 7.00
7.00 to 7.70

For every item in the list below, what is its measured pIC50?
1. Cc1nc2ccc(Oc3ccc4ncc(-c5cnn(C6CN(CC(=O)N7CC(O)C7)C6)c5)nc4c3Cl)cc2[nH]1
2. Cc1nc2ccc(Oc3ccc4ncc(-c5cnn(CCN6CC(O)C6)c5)nc4c3Cl)cc2[nH]1
3. Cc1nc2ccc(Oc3c(C)cc4ncc(-c5cnn(CC6CCN(C)CC6)c5)nc4c3Cl)cc2[nH]1

["≤ 6.40", "≤ 6.40", "≤ 6.40"]

For every item in the list below, what is its measured pIC50?
1. Cc1nc2ccc(Oc3ccc4ncc(-c5cnn(CC6CC(F)(F)C6)c5)nc4c3C3CC3)cc2[nH]1
2. Cc1nc2ccc(Oc3ccc4ncc(-c5cnn(CCN6CCCC6=O)c5)nc4c3Cl)cc2[nH]1
3. Cc1nc2ccc(Oc3ccc4ncc(-c5cnn(CC6CC7CC6CN7C)c5)nc4c3Cl)cc2[nH]1 (stereo not drawn)

["≤ 6.40", "≤ 6.40", "6.40 to 7.00"]

For every item in the list below, what is its measured pIC50?
1. Cc1nc2ccc(Oc3ccc4ncc(-c5cnn(CC6COCCN6C)c5)nc4c3Cl)cc2[nH]1 (stereo not drawn)
2. CNC(=O)N1CC2CC1CC2Cn1cc(-c2cnc3ccc(Oc4ccc5nc(C)[nH]c5c4)c(Cl)c3n2)cn1 (stereo not drawn)
3. Cc1nc2ccc(Oc3ccc4ncc(-c5cnn(C6CCC(F)(F)CC6)c5)nc4c3Cl)c(F)c2[nH]1
4. Cc1nc2ccc(Oc3ccc4ncc(-c5cnn(CCN6CCCC6)c5)nc4c3Cl)cc2[nH]1
5. Cc1nc2ccc(Oc3ccc4ncc(-c5cnn(C6CN(CC7(F)CC7)C6)c5)nc4c3Cl)cc2[nH]1
6. Cc1nc2ccc(Oc3ccc4ncc(-c5cnn(C6CC(F)(F)C6)c5)nc4c3Cl)cc2[nH]1
7. Cc1nc2ccc(Oc3ccc4ncc(-c5cnn(C[C@H]6C[C@@](C)(O)C6)c5)nc4c3Cl)cc2[nH]1
8. Cc1nc2ccc(Oc3ccc4ncc(-c5cnn(CCC6CCN(C)CC6)c5)nc4c3Cl)cc2[nH]1

≤ 6.40
≤ 6.40
6.40 to 7.00
≤ 6.40
≤ 6.40
≤ 6.40
≤ 6.40
6.40 to 7.00

For every item in the list below, what is its measured pIC50?
1. Cc1nc2ccc(Oc3ccc4ncc(-c5cnn(CC6(N)CC6)c5)nc4c3Cl)cc2[nH]1
2. Cc1nc2ccc(Oc3ccc4ncc(-c5cnn(CC(C)(O)C(F)(F)F)c5)nc4c3Cl)c(F)c2[nH]1 (stereo not drawn)
3. Cc1nc2ccc(Oc3ccc4ncc(-c5cnn(C6CCN(C(C)C)CC6)c5)nc4c3Cl)cc2[nH]1

["≤ 6.40", "≤ 6.40", "≤ 6.40"]

----------
# Tested on: UM-UC-14 (FGFR3-S249C) cells
# assay.notes: cell proliferation assay (CellTiterGlo), UM-UC-14 cells
# Format: cell-based
# experimental.conditions: 72 hours
pIC50: −log10 of the molar value.
Please go through the items and note down their pIC50.

Cc1nc2ccc(Oc3ccc4ncc(-c5cnn([C@H]6CC7(C[C@@H](O)C7)C6)c5)nc4c3Cl)c(F)c2[nH]1 (some centres unmarked); > 7.70

Now look at this one.
Retrieve pIC50 measured for Cc1nc2ccc(Oc3ccc4ncc(-c5cnn([C@H]6CC7(C[C@@H](O)C7)C6)c5)nc4c3Cl)cc2[nH]1 (some centres unmarked) and print it. 7.00 to 7.70

Values from patent US20240368181A1
